- protocol.notes: chemical genetic growth profiling, strain panel (AID 1159580);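 note: tested at 20 µM; growth read once vehicle control cultures reached saturation at 30 °C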
- assay.conditions: S. cerevisiae deletion strains, growth OD, locus YNL020C, strain ARK1, stronger effect = lower value
About 2,000 (36%) of roughly 5,500 compounds were called active. Not shown: some 18% with an inconclusive outcome. This is one part of the list.
Labelling field: enter Criterion met if recorded normalized growth is less than 0.9. Enter Criterion not met if it equals or exceeds that cut-off.

Field: below-cutoff. Rule: recorded normalized growth strictly less than 0.9. Subject: CCOC(=O)c1sc(S(C)=NC(=O)Nc2ccc(Cl)cc2)c2c1CCC=C2 (stereo not given)
Criterion not met

Field: below-cutoff. Rule: recorded normalized growth strictly less than 0.9. Subject: COc1ccc2c(c1)CCc1sc(NC(=O)c3ccco3)nc1-2
Criterion not met

Field: below-cutoff. Rule: recorded normalized growth strictly less than 0.9. Subject: Cn1nccc1-c1cc(Cl)cc(Cl)c1O
Criterion met

Field: below-cutoff. Rule: recorded normalized growth strictly less than 0.9. Subject: COc1ccc(Nc2nc(NC(=O)Nc3ccc(Cl)cc3)n[nH]2)cc1
Criterion met

Field: below-cutoff. Rule: recorded normalized growth strictly less than 0.9. Subject: CC1=CC(=O)N(c2ccc(F)c(Cl)c2)C1=O
Criterion met

Field: below-cutoff. Rule: recorded normalized growth strictly less than 0.9. Subject: CC1=CC(=O)N(c2ccc(OC(F)(F)F)cc2)C1=O
Criterion met

These data points were gathered from PubChem BioAssay AID1159580.
